This listing pairs compounds with measured inhibition.
Biological target: Sodium channel alpha subunits; brain (Types I, II, III) (Homo sapiens, UniProt P35498+Q99250+Q9NY46)
Sequence (Q99250 whole entry, looked up, other chains not shown): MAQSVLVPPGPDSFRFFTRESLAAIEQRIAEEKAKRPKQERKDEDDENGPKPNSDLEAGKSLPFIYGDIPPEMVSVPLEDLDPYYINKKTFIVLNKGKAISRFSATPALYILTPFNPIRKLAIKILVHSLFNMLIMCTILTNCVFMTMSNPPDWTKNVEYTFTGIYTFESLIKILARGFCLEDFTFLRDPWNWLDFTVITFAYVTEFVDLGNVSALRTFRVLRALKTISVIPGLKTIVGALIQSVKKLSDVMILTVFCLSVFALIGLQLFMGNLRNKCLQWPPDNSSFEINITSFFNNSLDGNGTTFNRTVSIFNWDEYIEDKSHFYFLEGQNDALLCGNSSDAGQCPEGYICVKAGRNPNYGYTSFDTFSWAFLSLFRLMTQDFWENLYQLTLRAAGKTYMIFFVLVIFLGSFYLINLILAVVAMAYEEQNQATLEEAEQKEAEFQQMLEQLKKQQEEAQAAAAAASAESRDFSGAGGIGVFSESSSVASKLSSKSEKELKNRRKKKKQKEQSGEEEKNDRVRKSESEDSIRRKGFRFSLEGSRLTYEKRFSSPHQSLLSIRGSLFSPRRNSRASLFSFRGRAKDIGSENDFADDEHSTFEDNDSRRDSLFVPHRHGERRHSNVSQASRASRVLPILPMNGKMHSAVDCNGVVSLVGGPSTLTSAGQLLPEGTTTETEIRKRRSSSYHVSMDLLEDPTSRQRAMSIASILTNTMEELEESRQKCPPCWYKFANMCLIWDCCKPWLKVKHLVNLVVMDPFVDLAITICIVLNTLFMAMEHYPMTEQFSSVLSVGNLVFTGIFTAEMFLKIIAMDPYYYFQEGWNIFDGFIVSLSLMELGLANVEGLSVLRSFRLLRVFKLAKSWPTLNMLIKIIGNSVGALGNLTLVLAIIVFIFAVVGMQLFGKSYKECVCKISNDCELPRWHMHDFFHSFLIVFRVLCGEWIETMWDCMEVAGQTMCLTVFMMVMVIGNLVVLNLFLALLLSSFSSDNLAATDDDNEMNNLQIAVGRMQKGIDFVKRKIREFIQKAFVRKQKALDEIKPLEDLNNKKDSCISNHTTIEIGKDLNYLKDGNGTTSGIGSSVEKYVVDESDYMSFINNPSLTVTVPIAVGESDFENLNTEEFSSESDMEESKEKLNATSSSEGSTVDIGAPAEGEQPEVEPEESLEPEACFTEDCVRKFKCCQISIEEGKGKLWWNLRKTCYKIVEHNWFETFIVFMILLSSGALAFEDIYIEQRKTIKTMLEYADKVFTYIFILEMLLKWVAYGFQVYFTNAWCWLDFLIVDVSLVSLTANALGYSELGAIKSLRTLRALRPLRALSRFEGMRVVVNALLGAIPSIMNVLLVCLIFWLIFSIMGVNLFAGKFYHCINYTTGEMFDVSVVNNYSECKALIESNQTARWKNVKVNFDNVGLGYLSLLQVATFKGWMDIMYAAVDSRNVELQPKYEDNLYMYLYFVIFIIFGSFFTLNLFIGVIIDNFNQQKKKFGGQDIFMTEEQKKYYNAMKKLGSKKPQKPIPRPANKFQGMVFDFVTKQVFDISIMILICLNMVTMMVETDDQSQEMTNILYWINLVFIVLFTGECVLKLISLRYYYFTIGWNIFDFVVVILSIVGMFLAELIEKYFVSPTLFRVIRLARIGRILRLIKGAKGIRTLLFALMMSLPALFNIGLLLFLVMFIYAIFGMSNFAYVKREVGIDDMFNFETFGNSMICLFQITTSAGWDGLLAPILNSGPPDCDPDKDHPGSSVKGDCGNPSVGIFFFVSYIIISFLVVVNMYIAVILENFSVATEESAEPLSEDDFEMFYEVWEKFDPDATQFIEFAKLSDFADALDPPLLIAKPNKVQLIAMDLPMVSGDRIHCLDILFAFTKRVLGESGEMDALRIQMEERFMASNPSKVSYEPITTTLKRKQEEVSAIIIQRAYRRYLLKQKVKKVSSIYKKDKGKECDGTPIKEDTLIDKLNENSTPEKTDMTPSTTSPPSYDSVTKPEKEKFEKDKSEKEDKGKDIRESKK
Sequence (Q9NY46 whole entry, looked up, other chains not shown): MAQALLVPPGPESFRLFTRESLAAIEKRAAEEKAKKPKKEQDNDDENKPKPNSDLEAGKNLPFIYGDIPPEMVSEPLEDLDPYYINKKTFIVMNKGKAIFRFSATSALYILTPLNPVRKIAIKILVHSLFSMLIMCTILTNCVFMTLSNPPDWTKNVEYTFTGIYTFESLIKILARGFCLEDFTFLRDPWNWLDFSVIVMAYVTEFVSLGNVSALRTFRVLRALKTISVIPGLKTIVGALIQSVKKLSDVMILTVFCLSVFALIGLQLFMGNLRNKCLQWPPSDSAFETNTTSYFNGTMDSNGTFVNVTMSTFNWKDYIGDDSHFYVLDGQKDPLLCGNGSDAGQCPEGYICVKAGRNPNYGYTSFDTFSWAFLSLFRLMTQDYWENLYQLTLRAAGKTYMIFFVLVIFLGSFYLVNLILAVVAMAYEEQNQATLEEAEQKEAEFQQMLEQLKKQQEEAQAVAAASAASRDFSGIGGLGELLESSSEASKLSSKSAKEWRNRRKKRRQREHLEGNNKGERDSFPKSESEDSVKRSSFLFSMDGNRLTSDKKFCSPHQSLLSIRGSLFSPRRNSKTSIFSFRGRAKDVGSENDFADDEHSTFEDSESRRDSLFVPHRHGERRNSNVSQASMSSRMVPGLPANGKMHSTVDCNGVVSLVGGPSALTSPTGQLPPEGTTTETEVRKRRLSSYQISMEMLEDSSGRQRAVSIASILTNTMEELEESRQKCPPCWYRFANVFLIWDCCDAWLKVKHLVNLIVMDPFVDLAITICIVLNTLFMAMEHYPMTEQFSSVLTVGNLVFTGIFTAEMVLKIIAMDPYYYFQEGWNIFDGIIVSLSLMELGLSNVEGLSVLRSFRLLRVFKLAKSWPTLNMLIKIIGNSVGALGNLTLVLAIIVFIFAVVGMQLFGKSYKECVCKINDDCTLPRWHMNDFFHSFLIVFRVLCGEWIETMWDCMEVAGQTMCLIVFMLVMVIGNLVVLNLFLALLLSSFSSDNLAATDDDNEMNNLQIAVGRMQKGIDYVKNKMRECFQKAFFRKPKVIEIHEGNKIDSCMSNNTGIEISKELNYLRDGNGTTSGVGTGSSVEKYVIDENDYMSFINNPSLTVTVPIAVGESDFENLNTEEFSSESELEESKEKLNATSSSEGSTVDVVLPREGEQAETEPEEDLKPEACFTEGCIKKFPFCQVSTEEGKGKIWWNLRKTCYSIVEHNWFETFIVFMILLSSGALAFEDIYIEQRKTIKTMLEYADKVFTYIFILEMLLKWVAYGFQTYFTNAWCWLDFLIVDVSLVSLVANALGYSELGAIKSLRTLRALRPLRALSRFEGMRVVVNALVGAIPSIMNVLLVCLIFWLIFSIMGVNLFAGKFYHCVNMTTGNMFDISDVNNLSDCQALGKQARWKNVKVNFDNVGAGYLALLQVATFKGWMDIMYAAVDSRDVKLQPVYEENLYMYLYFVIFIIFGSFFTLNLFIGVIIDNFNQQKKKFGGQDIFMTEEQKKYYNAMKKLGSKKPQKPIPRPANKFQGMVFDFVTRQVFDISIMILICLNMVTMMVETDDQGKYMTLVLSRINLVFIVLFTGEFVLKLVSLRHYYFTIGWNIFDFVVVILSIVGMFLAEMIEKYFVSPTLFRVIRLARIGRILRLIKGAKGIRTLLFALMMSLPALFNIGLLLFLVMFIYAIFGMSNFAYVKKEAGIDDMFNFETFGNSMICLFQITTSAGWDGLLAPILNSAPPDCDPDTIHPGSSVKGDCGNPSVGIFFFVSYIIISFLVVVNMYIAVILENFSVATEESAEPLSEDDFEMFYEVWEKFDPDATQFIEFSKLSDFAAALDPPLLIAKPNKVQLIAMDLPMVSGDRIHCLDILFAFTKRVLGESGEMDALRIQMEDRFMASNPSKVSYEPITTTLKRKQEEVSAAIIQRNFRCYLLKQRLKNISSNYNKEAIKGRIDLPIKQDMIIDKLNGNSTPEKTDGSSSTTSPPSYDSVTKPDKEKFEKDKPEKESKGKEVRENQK
Details: Cavia porcellus; Cerebral cortex; at 100 µM
QUANTITY MEASURED: inhibition (%)

[[record]]
compound = "Cc1cccc(C)c1NC(=O)C1CCCCN1C (stereo unspecified)"
quantitative_readout = 29.3

[[record]]
compound = "CNC1=Nc2ccc(Cl)cc2C(c2ccccc2)=[N+]([O-])C1"
quantitative_readout = 35

[[record]]
compound = "O=c1n(CCCN2CCN(c3cccc(Cl)c3)CC2)nc2ccccn12"
quantitative_readout = 79.6

[[record]]
compound = "CN1C(=O)CN=C(c2ccccc2)c2cc(Cl)ccc21"
quantitative_readout = 45.4

[[record]]
compound = "CCCCOC(=O)c1ccc(N)cc1"
quantitative_readout = 36.8

[[record]]
compound = "CCCNC(C)C(=O)Nc1ccccc1C (stereo unspecified)"
quantitative_readout = 58.5

[[record]]
compound = "CCOC(=O)c1ccc(N)cc1"
quantitative_readout = 0

[[record]]
compound = "CC1CCCC[N+]1(C)CCCOC(=O)c1ccccc1.[I-] (stereo unspecified)"
quantitative_readout = 31.4

[[record]]
compound = "Cn1c(=O)c2nc(-c3ccc(S(=O)(=O)O)cc3)[nH]c2n(C)c1=O"
quantitative_readout = 2.9

[[record]]
compound = "CCCCOc1ccc(OCCCN2CCOCC2)cc1"
quantitative_readout = 86.3

[[record]]
compound = "CC[C@@H](CO)NC(=O)[C@@H]1C=C2c3cccc4c3c(cn4C)C[C@H]2N(C)C1"
quantitative_readout = 17.8

[[record]]
compound = "CCOC(=O)c1cnc2c(cnn2CC)c1NN=C(C)C"
quantitative_readout = 20.1

[[record]]
compound = "CN/C(=N\\CCSCc1nc[nH]c1C)NC#N"
quantitative_readout = 4.1

[[record]]
compound = "COc1ccc2c(c1)c(CC(=O)O)c(C)n2C(=O)c1ccc(Cl)cc1"
quantitative_readout = 11.2

[[record]]
compound = "CCN(CC)CC(=O)Nc1c(C)cccc1C"
quantitative_readout = 31.4

[[record]]
compound = "C[C@]12CC[C@@H]3c4ccc(O)cc4CC[C@H]3[C@@H]1CC[C@@H]2O"
quantitative_readout = 53.3

